Tested on: NCI/ADR-RES ovarian
Assay: NCI-60 one-dose screen, 48 h (100 = growth as untreated, 0 = no growth, -100 = all killed)
Details: 10 µM unless noted
Protocol: Growth inhibition of the NCI/ADR-RES human […] tumor cell line is measured as a screen for anti-cancer activity. Cells are grown in 96 well plates and exposed to the test compound for 48 hours. Compounds are tested at a single concentration, which is 10^-5 M for most compounds. The reported endpoint is percent growth (GI% or GIPRCNT), where numbers from 0 - 100% represent growth inhibition, and numbers from -100% - 0 represent cell death. For example, a value of 40 represents 60% growth inhibition. […]
Compounds without any hit were thinned out: in the full panel of roughly 83,000, 20% have a hit. Active and inactive are the calls of the source. How the source made its calls: active means growth percent below 10; inactive means the rest.
value-kind: growth

COc1ccc(Cl)cc1NC(=O)c1cc2c([nH]1)-c1nc(N)sc1CCC2 :: 92.7% (inactive)
COC(=O)CCCNS(=O)(=O)c1cc(C(=O)Nc2ccc(NC(=O)c3cc(S(=O)(=O)NCCCC(=O)OC)c(O)c(O)c3O)cc2)c(O)c(O)c1O :: 94.2% (inactive)
Nc1n[nH]c2cccc(C#Cc3cccc(NC(=O)c4cccc(C(F)(F)F)c4)c3)c12 :: 43.2% (inactive)

Would you mind giving growth for every compound in the list below?
1. O=C(NNC(=O)c1ccc([N+](=O)[O-])cc1)c1ccc([N+](=O)[O-])cc1
2. COc1ccc(-c2c(NC(=O)Nc3ccc(Cl)c(C(F)(F)F)c3)cnn2-c2ccc(S(N)(=O)=O)cc2)cc1
3. C=C1C(=O)O[C@H]2[C@H]1CC/C(COC(=O)c1ccc(Cl)nc1)=C\CC[C@@]1(C)O[C@@H]21

1. 104% (inactive)
2. 89.9% (inactive)
3. 42.1% (inactive)
